Biological target: cAMP-dependent protein kinase catalytic subunit alpha (Homo sapiens) (UniProt P17612)
Experiment: PKA catalytic subunit kinase inhibition – biochemical, ATP-depletion luminescence, Kemptide substrate, primary screen (AID 524)
Conditions: PKA Kemptide phosphorylation, Kinase-Glo ATP luminescence; at 6 µM; stronger effect = higher value
Out of some 65,000 compounds screened, about 95 (0.1%) were called active. The list comes from a sample in which actives are over-represented; it also holds close analogues and randomly drawn compounds.
Each entry below carries its recorded inhibition.
reported.property: inhibition (%)

[[record]]
molecule = "Cn1c(=O)[nH]c(=O)c2c1nc(CN1CCN(c3ccccc3F)CC1)n2CCc1ccccc1"
val = 1.4

[[record]]
molecule = "Nc1nc(SCCOc2ccccc2)n[nH]1"
val = 11.5

[[record]]
molecule = "COc1ccccc1CNC(=O)C1CCN(S(C)(=O)=O)CC1"
val = 4.6

[[record]]
molecule = "O/N=C(\\c1ccc2c(c1)OCCO2)C1CCCCC1"
val = -0.4

[[record]]
molecule = "Cc1nc2ccc(S(=O)(=O)NCC(=O)NCCN3CCCCC3C)cc2s1 (centres undefined)"
val = -5.1

[[record]]
molecule = "O=C(NCCC1=CCCCC1)C1CCN(Cc2cnn(-c3ccccc3)c2-n2cccc2)CC1"
val = 6.6

[[record]]
molecule = "CN(CC(=O)NC1CCCCC1)S(=O)(=O)c1ccc(Br)s1"
val = 4

[[record]]
molecule = "CC(=O)Nc1ccc(-c2cn3cccnc3n2)cc1"
val = 3.9

[[record]]
molecule = "CCn1cc(C(=O)NCC2COc3ccccc3O2)c2cc(OC)c(OC)cc2c1=O (centres undefined)"
val = 2.4

[[record]]
molecule = "CCn1ncc(C2=NOC(C(=O)N3CCN(c4ccccc4)CC3)C2)c1C (centres undefined)"
val = 11.5

[[record]]
molecule = "N#Cc1ccc(COC(=O)Cn2nnc(-c3ccccc3)n2)cc1"
val = 10.9

[[record]]
molecule = "Cc1ccc(S(=O)(=O)N2CCN(Cc3cccc(C)c3O)CC2)cc1"
val = 6.3

[[record]]
molecule = "O=C(Oc1ccccc1)c1ccc2nccnc2c1"
val = 18.8

[[record]]
molecule = "O=C(NCC1CCCO1)C(C(=O)c1ccccc1)n1cc(Cl)ccc1=O (centres undefined)"
val = 1.8

[[record]]
molecule = "CCc1cc(Br)ccc1NC(=O)C1CCCO1 (centres undefined)"
val = 12.3

[[record]]
molecule = "Cc1cc(NC(=O)c2cccc(N3C(=O)CCC3=O)c2)no1"
val = -4

[[record]]
molecule = "COc1ccccc1Cn1c(=S)[nH]c2cc(C(=O)N3CCN(C)CC3)ccc2c1=O"
val = 4.3

[[record]]
molecule = "CCCCn1c(SCC(=O)N2CCC(C(=O)OCC)CC2)nc2cc(S(N)(=O)=O)ccc21"
val = 2.4

[[record]]
molecule = "COc1ccc(CCN=C2SCC(=O)N2C)cc1OC"
val = 5.5

[[record]]
molecule = "O=S(=O)(NCc1cccnc1)c1ccc(Br)s1"
val = -2.9

[[record]]
molecule = "CC(NC(=O)c1ccc(Cl)cc1)C(=O)N1CCCCC1 (centres undefined)"
val = 8.7

[[record]]
molecule = "COCCNC(=S)c1ccc(OC)cc1"
val = 5.8

[[record]]
molecule = "Cc1noc(C)c1C(=O)OCC(=O)/C=C1\\N(C)c2ccccc2C1(C)C"
val = 6.8

[[record]]
molecule = "O=C(COC(=O)c1ccc2c(c1)OCCO2)NCc1ccccc1"
val = 5.2


Numbers sourced from PubChem BioAssay AID524.
